Provide the reported protein stability index of each item.
# System: Saccharomyces cerevisiae;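 also: PSI is a weighted mean of sequencing reads over stability bins, variants kept only with over 10 reads, mCherry proximal and sfGFP distal, peptide attached via GGGS linker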
# experiment.description: protein stability index of tFT-peptide fusion (C-terminal peptide) (PSI (0-1 scale)); higher = more stable (slower turnover)
# measurement.context: genetic background: wild type; temperature: 30 C

Data point: LCFLVALASMLF ; protein stability index = 0.462

Data point: GESCGGSERRVG ; protein stability index = 0.666

Data point: PPPSRRLTLRLA ; protein stability index = 0.21

Data point: FVSAFVCLLCLV ; protein stability index = 0.377

Data point: RSRCVRAAVKVG ; protein stability index = 0.216

Data point: MSHVCICRRLML ; protein stability index = 0.427

Data point: LVCLVASCVRWL ; protein stability index = 0.272

Data point: RLELTRIMIVAI ; protein stability index = 0.117

Data point: GCRLRHRLVRIV ; protein stability index = 0.119

Data point: ILFIVSSCGCVG ; protein stability index = 0.446

Data point: PSPPPPRPASPS ; protein stability index = 0.652

Data point: LFLFVGCSVRRL ; protein stability index = 0.391

Data point: EWLITLRKCGVA ; protein stability index = 0.423

Data point: VVRLRVWRLLKV ; protein stability index = 0.161

Data point: LMLGARVSRRIH ; protein stability index = 0.263

Data point: QVGRPRVGFSRR ; protein stability index = 0.66

Data point: YPLISVSLPCPS ; protein stability index = 0.404

Data point: LAISTIQMFKRI ; protein stability index = 0.327

Data point: LPPHLPFPLSAA ; protein stability index = 0.462

Data point: TYCFRVCAWRAN ; protein stability index = 0.208

Data point: RSPIRYPPVVLS ; protein stability index = 0.539

Data point: GGGGVFGVWVWM ; protein stability index = 0.272

Data point: RVLILCLFFRWS ; protein stability index = 0.279

Data point: GALVVSWAEVLC ; protein stability index = 0.402

Data point: AFRRFLLYCRFI ; protein stability index = 0.148

Data point: GIISMYVARRLG ; protein stability index = 0.173

Data point: RLVYSQKRWSLF ; protein stability index = 0.181

Data point: LILFMLLSFLTT ; protein stability index = 0.293

Data point: PPPRLPLLSCSQ ; protein stability index = 0.638

Data point: TVYMVIRVIVWG ; protein stability index = 0.102

Data point: FSPLVCLLFFLF ; protein stability index = 0.333

Data point: CDSRIRKIWSYL ; protein stability index = 0.284

Data point: DMWYLLWRVCYI ; protein stability index = 0.409

Data point: LSLGVGSDAEGG ; protein stability index = 0.645

Data point: VHHAFLPYTLVR ; protein stability index = 0.407

Data point: FLLSFFGLVFFW ; protein stability index = 0.374

Data point: FFFFLVPVHCVI ; protein stability index = 0.249

Data point: IKTKGRYKKQRT ; protein stability index = 0.376

Data point: QDFFYCLLVATS ; protein stability index = 0.205

Data point: FCLFFFPSLFFF ; protein stability index = 0.295

Data point: CCSRYLSNLCPI ; protein stability index = 0.648

Data point: VTLLCRFFMLVF ; protein stability index = 0.289

Data point: PCFACIAFVLFP ; protein stability index = 0.343
